The measurements presented in this section are drawn from paper PMC8114154.

test system: AsojAgdL; experiment: glucose release; format: biochemical, Aspergillus sojae; conditions: 20 mM MES pH 6.0, 40 °C, 60 min; low substrate range only (substrate inhibition)
Entries and their Km values follow.
experimental-endpoint: Km (µM)

* OC[C@H]1O[C@H](O[C@H]2[C@H](O)[C@@H](O)[C@@H](O[C@H]3[C@H](O)[C@@H](O)C(O)O[C@@H]3CO)O[C@@H]2CO)[C@H](O)[C@@H](O)[C@@H]1O (stereo partly shown) | 2000
* OC[C@H]1O[C@H](O[C@H]2[C@H](O)[C@@H](O)[C@@H](O[C@H]3[C@H](O)[C@@H](O)[C@@H](O[C@H]4[C@H](O)[C@@H](O)[C@@H](O[C@H]5[C@H](O)[C@@H](O)C(O)O[C@@H]5CO)O[C@@H]4CO)O[C@@H]3CO)O[C@@H]2CO)[C@H](O)[C@@H](O)[C@@H]1O (stereo partly shown) | 900
* OC[C@H]1O[C@H](O[C@H]2[C@H](O)[C@@H](O)[C@@H](O[C@H]3[C@H](O)[C@@H](O)[C@@H](O[C@H]4[C@H](O)[C@@H](O)C(O)O[C@@H]4CO)O[C@@H]3CO)O[C@@H]2CO)[C@H](O)[C@@H](O)[C@@H]1O (stereo partly shown) | 1600
* OC[C@H]1O[C@H](O[C@H]2[C@H](O)[C@@H](O)[C@@H](O[C@H]3[C@H](O)[C@@H](O)[C@@H](O[C@H]4[C@H](O)[C@@H](O)[C@@H](O[C@H]5[C@H](O)[C@@H](O)[C@@H](O[C@H]6[C@H](O)[C@@H](O)C(O)O[C@@H]6CO)O[C@@H]5CO)O[C@@H]4CO)O[C@@H]3CO)O[C@@H]2CO)[C@H](O)[C@@H](O)[C@@H]1O (stereo partly shown) | 900
